Target: β-catenin/BCL9 PPI (Homo sapiens)
Construct: Full-length β-catenin (residues 1-781); host or cells: E. coli BL21 DE3
Experiment: AlphaScreen competitive inhibition assay of β-catenin/BCL9 PPI
Format: binding
Conditions: SAR comparison
QUANTITY KIND: AlphaScreen inhibitory activity in words

>>> test_result("CC(C)(Oc1cccc(N2CCCC(C(=O)N(Cc3ccc(-c4cccs4)cc3)C3CC3)C2)c1)C(=O)NS(=O)(=O)c1ccccc1 (stereo not shown) [Compound 21]")
"improved activities"
>>> test_result("CC(C)(Oc1cccc(N2CCCC(C(=O)N(Cc3ccc(-c4cccs4)cc3)C3CC3)C2)c1)C(=O)NS(=O)(=O)C1CC1 (stereo not shown) [Compound 19]")
"improved activities"
>>> test_result("CC(C)S(=O)(=O)NC(=O)C(C)(C)Oc1cccc(N2CCCC(C(=O)N(Cc3ccc(-c4cccs4)cc3)C3CC3)C2)c1 (stereo not shown) [Compound 20]")
"improved activities"
>>> test_result("COC(=O)C(C)(C)Oc1cccc(N2CCCC(C(=O)N(Cc3ccc(-c4cccs4)cc3)C3CC3)C2)c1 (stereo not shown) [Compound 16]")
"significant potency loss"
>>> test_result("CC(C)(C)OC(=O)C(C)(C)Oc1cccc(N2CCCC(C(=O)N(Cc3ccc(-c4cccs4)cc3)C3CC3)C2)c1 (stereo not shown) [Compound 17]")
"significant potency loss"

---

Biological target: β-catenin/BCL9 PPI (Homo sapiens, UniProt P35222)
Construct: Full-length β-catenin (residues 1-781); host or cells: E. coli BL21 DE3
Test: AlphaScreen competitive inhibition assay of β-catenin/BCL9 PPI
Format: binding
Settings: Table 1, AlphaScreen, inhibitors 16-26
pIC50: −log10 of the molar value.
pIC50 values by entry
QUANTITY KIND: pIC50

>>> test_result("COc1ccc(S(=O)(=O)NC(=O)C(C)(C)Oc2cccc(N3CCCC(C(=O)N(Cc4ccc(-c5cccs5)cc4)C4CC4)C3)c2)cc1 (stereo not drawn) [Compound 23]")
"≥ 5.00"
>>> test_result("COc1cccc(S(=O)(=O)NC(=O)C(C)(C)Oc2cccc(N3CCCC(C(=O)N(Cc4ccc(-c5cccs5)cc4)C4CC4)C3)c2)c1 (stereo not drawn) [Compound 22]")
"≥ 5.00"
>>> test_result("CC(C)(Oc1cccc(N2CCCC(C(=O)N(Cc3ccc(-c4cccs4)cc3)C3CC3)C2)c1)C(=O)NS(=O)(=O)c1cccc(C#N)c1 (stereo not drawn) [Compound 25]")
"≥ 5.00"

---

Target: β-catenin/BCL9 PPI (Homo sapiens)
Construct: Full-length β-catenin (residues 1-781); host or cells: E. coli BL21 DE3
Sequence (P35222 1-781): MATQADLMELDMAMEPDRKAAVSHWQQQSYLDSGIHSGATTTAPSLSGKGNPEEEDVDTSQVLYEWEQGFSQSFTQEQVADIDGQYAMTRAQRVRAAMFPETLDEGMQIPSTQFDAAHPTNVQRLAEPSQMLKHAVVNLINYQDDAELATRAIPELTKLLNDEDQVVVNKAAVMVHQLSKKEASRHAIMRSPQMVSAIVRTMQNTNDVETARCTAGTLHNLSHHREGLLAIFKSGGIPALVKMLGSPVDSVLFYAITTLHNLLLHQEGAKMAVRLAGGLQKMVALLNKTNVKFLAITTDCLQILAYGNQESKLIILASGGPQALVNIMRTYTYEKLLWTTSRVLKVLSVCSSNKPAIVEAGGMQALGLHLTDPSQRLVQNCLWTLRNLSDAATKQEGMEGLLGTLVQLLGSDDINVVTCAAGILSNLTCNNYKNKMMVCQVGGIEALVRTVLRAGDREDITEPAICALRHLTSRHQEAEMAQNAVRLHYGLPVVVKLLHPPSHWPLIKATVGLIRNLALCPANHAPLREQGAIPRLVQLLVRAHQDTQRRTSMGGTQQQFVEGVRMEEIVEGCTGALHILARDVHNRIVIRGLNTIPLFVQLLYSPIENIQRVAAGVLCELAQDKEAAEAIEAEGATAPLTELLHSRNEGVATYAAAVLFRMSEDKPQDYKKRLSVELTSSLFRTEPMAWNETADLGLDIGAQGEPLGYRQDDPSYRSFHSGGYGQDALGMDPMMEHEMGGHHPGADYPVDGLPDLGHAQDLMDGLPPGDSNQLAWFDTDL
Experiment: AlphaScreen competitive inhibition assay of β-catenin/BCL9 PPI
Type: binding
Details: first Table 3, AlphaScreen, inhibitors 31-35
Experimental: AlphaScreen Assays of β-Catenin and BCL9 Interaction. Experiments were performed in white opaque 384-well plates from PerkinElmer (Waltham, MA), and the samples were read on a Biotek Synergy 2 plate reader (Winooski, VT) with excitation at 680 nm and emission at 570 nm. […] For the β-catenin/BCL9 assay, 5 nM biotinylated BCL9, and 50 nM His6-tagged 8-catenin were incubated in assay buffer for 30 min. […] The IC50 value was determined by nonlinear least-square analysis of GraphPad Prism 8.0. […]
IC50 values by entry
QUANTITY KIND: IC50

>>> test_result("CC(C)(Oc1cccc(N2CCC[C@H](C(=O)N(Cc3ccc(-c4cccs4)cc3)C3CC3)C2)c1)C(=O)NS(=O)(=O)c1cccc(C#N)c1")
"≤ 10 µM"
>>> test_result("COc1ccc(S(=O)(=O)NC(=O)C(C)(C)Oc2cccc(N3CCC[C@H](C(=O)N(Cc4ccc(-c5cccs5)cc4)C4CC4)C3)c2)cc1")
"≤ 30 µM"
>>> test_result("CC(C)(Oc1cccc(N2CCC[C@@H](C(=O)N(Cc3ccc(-c4cccs4)cc3)C3CC3)C2)c1)C(=O)NS(=O)(=O)C1CC1")
"≤ 30 µM"
>>> test_result("CC(C)(Oc1cccc(N2CCCC(C(=O)N(Cc3ccc(-c4cccs4)cc3)C3CC3)C2)c1)C(=O)NS(=O)(=O)C(F)(F)F (centres unmarked)")
"~200 µM"
>>> test_result("CC(C)(Oc1cccc(N2CCC[C@H](C(=O)N(Cc3ccc(-c4cccs4)cc3)C3CC3)C2)c1)C(=O)NS(=O)(=O)C1CC1")
"≤ 30 µM"

From: patent US20250019371A1
